Taken from PubChem BioAssay AID624305.

- assay-procedure: qHTS assay for re-activators of p53 using a Luc reporter: Hit Validation; note: nearly all actives have a fitted effect of over 75% in size
- reported-conditions: p53-responsive luciferase reporter cells, luminescence, H1299 line expressing heat-sensitive Ala138Val p53; series mostly up to 46.1 µM
Inconclusive results are not listed. Active and inactive are the calls of the source. Calls come from the whole dose curve; as a rule, active = well fitted activation curve with a large enough effect; inconclusive = small, poorly fitted or top-dose-only effect; inactive = no such curve, though single readings can be large or run the other way.
Outcome codes: active, inactive

# compound, group
measured = [
    ("Cc1ccc2nc(N3C(=O)C(O)=C(C(=O)c4ccc(C)o4)C3c3ccco3)sc2c1 (stereo unspecified)", "inactive"),
    ("Cc1cc(C)cc(NC(=O)c2sc3nc(C)cc(C)c3c2N)c1", "active"),
    ("COc1ccc2c(=O)c(-c3nc(C)cs3)coc2c1", "active"),
    ("O=C1CC(c2ccc3c(c2)OCCO3)Oc2ccc([N+](=O)[O-])cc21 (stereo unspecified)", "active"),
    ("CC(C)OC(=O)CCCCCN1C(=O)CSC1=S", "inactive"),
    ("Cc1ccc(-c2nnc(Oc3cccc(C)c3)c3ccccc23)cc1", "active"),
]
